System name: Beta-galactosidase (Escherichia coli)
Assay protocol: potency against CXCR6 with APJ panel – cell-based, beta-arrestin, DiscoveRx, uHTS hits, dose response (AID 624129)
Conditions: CXCR6 beta-arrestin (DiscoveRx) antagonist cell assay, b-galactosidase, dose range 1
Calls of active or inactive are those of the source. The rule behind the calls is not given here.
Respond using exactly one of the listed classes: active, inactive

Worked examples follow.
INSERT INTO results (molecule, class_name) VALUES
  ('C/C(=N\NC(=O)C(C)Oc1ccc([N+](=O)[O-])cc1)c1ccccn1 (stereo unspecified)', 'inactive'),
  ('N#CC(C#N)=C1C=CC=CN1/C(=C\c1ccccc1Cl)C(=O)c1ccccc1', 'inactive'),
  ('CC(Oc1ccc(F)cc1)C(=O)Nc1nc(-c2ccccn2)cs1 (stereo unspecified)', 'inactive'),
  ('Cc1ccc2oc(/N=C(\N)NC(=O)C(C)(C)C)nc2c1', 'inactive'),
  ('CC(=O)Nc1ccc(Sc2ccc([N+](=O)[O-])o2)cc1', 'inactive');

For `CCN(CC)CC(C)(C)C(=O)/C=C/c1ccc(/C=C/C(=O)C(C)(C)CN(CC)CC)cc1` , what call appears in the results of this test? inactive

// param item: `Cc1ccc(C(=O)/C=C/C(=O)c2ccc(C)cc2)cc1` ; yields the recorded call inactive

Call for entry `COc1ccc(-c2csc(Cc3nc(O)cs3)n2)cc1` : inactive

* * *

System name: C-C chemokine receptor type 6 (Homo sapiens) (UniProt P51684)
Assay protocol: potency against CXCR6 with APJ panel – cell-based, beta-arrestin, DiscoveRx, uHTS hits, dose response (AID 624129)
Conditions: CXCR6 beta-arrestin (DiscoveRx) antagonist cell assay, CCR6, dose range 1, mean IC50 across replicates
pIC50: −log10 of the molar value.
Attribute: pIC50

INSERT INTO assay_data (compound, observed) VALUES
  ('O=[N+]([O-])c1ccc(S(=O)Cc2ccccc2)c([N+](=O)[O-])c1 (stereo unspecified)', '< 4.10');

Record summary for `Cc1ccc(C(=O)/C=C/C(=O)c2ccc(C)cc2)cc1` : reported pIC50 = < 4.10

// COc1ccc(C(=O)/C=C/C(=O)N(CC(=O)NC2CCCCC2)CC2CCCO2)c(O)c1 (stereo unspecified) : pIC50 value = < 4.10

What the record says about `CCOc1ccc(NC(=O)CN(C)S(=O)(=O)c2cccs2)cc1` : pIC50 is < 4.10

Record `O=C(Nc1nc(-c2ccccn2)cs1)c1cc(Cl)ccc1[N+](=O)[O-]` . Reported pIC50: < 4.10

get_value(item= COc1ccc(NC(=O)/C(Cl)=C(/Cl)S(=O)Cc2ccc(Cl)cc2)cn1 (stereo unspecified) , readout=pIC50) returns < 4.10

# pIC50 (compound: `Cc1ccc2c(C)ccc(O)c2n1` ) is 5.27

* * *

Entries and their pIC50 values follow.
System name: C-X-C chemokine receptor type 6 (Homo sapiens)
Assay protocol: potency against CXCR6 with APJ panel – cell-based, beta-arrestin, DiscoveRx, uHTS hits, dose response (AID 624129)
Conditions: CXCR6 beta-arrestin (DiscoveRx) antagonist cell assay, CXCR6, run 1, dose range 2
Reminder that pIC50 means the negative base-10 logarithm of the concentration expressed in mol/L.

INSERT INTO measurements (compound, system_name, observed) VALUES
  ('Cc1ccc(-n2c(SCCN)nnc2-c2cccc(C)c2)cc1', 'C-X-C chemokine receptor type 6 (Homo sapiens)', 4.18),
  ('CCOc1cc(/C=C2\N=C(SCC)SC2=O)cc([N+](=O)[O-])c1OC(C)=O', 'C-X-C chemokine receptor type 6 (Homo sapiens)', 4.62);

So for `COc1cc(/C=C(\C#N)c2nc3ccccc3o2)ccc1O` , the logged pIC50 turned out to be 4.54

So, `Cc1ccc(OCC(=O)NNC(=S)NC(=O)C2CC2)c(C)c1` ? Its pIC50 was 4.99

The compound listed as `COc1ccc2nc(-n3c(O)c(C4=c5ccccc5=NC4=O)[nH]c3=S)sc2c1` shows pIC50 equal to 4.58

Form field pIC50, entry `COC(=O)c1ccc2c(c1)C(C)(C)C(/C=C/c1ccc(OC)c(OC)c1OC)=[N+]2C` : 5.13

The compound `Cc1ccc(/C=N/NC(=S)N2CCOCC2)cc1` showed pIC50 equal to 5.50

In plain terms, `O=C(Nc1ccccc1Oc1ccccc1)[C@@H]1O[C@H](CO)[C@H](O)[C@H](O)[C@H]1O` has a documented pIC50 of 4.91

Query `CCn1c(Cl)c(C=O)s/c1=N\S(=O)(=O)c1ccccc1` yields pIC50 of 5.29

The reported value for `O=C(C#Cc1cccc([N+](=O)[O-])c1)c1ccccc1` in terms of pIC50 is 4.90
